Test system: L. donovani-infected THP-1 macrophages, intracellular amastigote imaging
Method notes: antileishmanial activity in infected THP-1 macrophages – imaging, THP-1 host macrophages, host toxicity (AID 1159564)
Measurement parameters: measured here: THP-1 host cell toxicity
Assay readout: pIC50
Friendly reminder that pIC50 comes from taking -log10 of the concentration in mol/L.

Compound	Assay readout	Observed value
CC(=O)Nc1ccc(-c2csc(NC(=O)c3ccc([N+](=O)[O-])s3)n2)cc1	pIC50	4.89
NC(=O)c1ncccc1Nc1nc(NC2CCC(O)CC2)ncc1Br (stereo not given)	pIC50	6.40

// recorded pIC50 for COc1ccc2ncc(Cl)c(CCN3CC[C@@H](NCc4cc5c(cn4)OCS5)[C@H](O)C3)c2n1 : 4.60

// recorded pIC50 for FC(F)(F)c1cc(C2CCCN(Cc3c[nH]c4ccccc34)C2)nc2ncnn12 (stereo not given) : 4.80

// recorded pIC50 for COc1ccc(Oc2ccc(C(C)N(C)c3ncc4c(N)nc(N)nc4n3)cc2)cc1 (stereo not given) : 4.80

// recorded pIC50 for CCOc1ccc(N(C)S(=O)(=O)c2ccc3[nH]cc(C(=O)NC4CCCC4)c(=O)c3c2)cc1 : 4.60

// recorded pIC50 for COc1ccc(CNc2nsc3ccccc23)cc1OC : 4.60

====

System: L. donovani-infected THP-1 macrophages, intracellular amastigote imaging
Method notes: antileishmanial activity in infected THP-1 macrophages – imaging, THP-1 host macrophages, host toxicity (AID 1159564)
Measurement parameters: measured here: THP-1 host cell toxicity
Overview of recorded IC50 for various molecules
Numeric answer only, unit µM assumed.

Molecule	IC50 [µM]
COc1ccc(CN2C(=O)C(O)(CC(=O)c3ccncc3)c3cc(Br)ccc32)cc1OC (stereo not given)	40
CCCNC(=O)Nc1cccc(-c2nc3ncccc3o2)c1	20

Shift focus to the following entry.
// recorded IC50 for c1ccc(-c2nc(NC3CCCC3)c3ccccc3n2)nc1 : 20

====

Test system: L. donovani-infected THP-1 macrophages, intracellular amastigote imaging
Method notes: antileishmanial activity in infected THP-1 macrophages – imaging, THP-1 host macrophages, host toxicity (AID 1159564)
Measurement parameters: measured here: THP-1 host cell toxicity
Assay readout: pIC50
Friendly reminder that pIC50 comes from taking -log10 of the concentration in mol/L.

Solved cases (4 shown):
Compound	Measurement target	pIC50
Nc1nonc1-c1nc2cncc(C(=O)N3CC[C@H](N)C3)c2n1CC1CC1	L. donovani-infected THP-1 macrophages, intracellular amastigote imaging	4.89
O=[N+]([O-])c1ccc(C2=CC(c3ccccc3)=NCCN2)cc1	L. donovani-infected THP-1 macrophages, intracellular amastigote imaging	4.40
CCC(=O)Nc1ccc(C(=O)Nc2ccccc2-c2ccccc2)cc1	L. donovani-infected THP-1 macrophages, intracellular amastigote imaging	4.80
C[C@@H](Oc1cc(-n2cnc3ccc(C(O)CO)cc32)sc1C(N)=O)c1ccccc1C(F)(F)F (stereo not given in full)	L. donovani-infected THP-1 macrophages, intracellular amastigote imaging	4.80

// recorded pIC50 for Cc1cc(Oc2cc(Cl)c(Cl)cc2Cl)n2ncnc2n1 : 5.00

====

System: L. donovani-infected THP-1 macrophages, intracellular amastigote imaging
Method notes: antileishmanial activity in infected THP-1 macrophages – imaging, THP-1 host macrophages, host toxicity (AID 1159564)
Measurement parameters: measured here: THP-1 host cell toxicity
Assay readout: IC50 (µM)
Numeric answer only, unit µM assumed.

Solved cases (5 shown):
Compound	IC50 / µM
COc1ncc(-c2ccc3nccc(-c4ccncc4)c3c2)cc1NS(C)(=O)=O	3.2
COc1ccc(-c2csc(NC(=O)c3ccc([N+](=O)[O-])s3)n2)cc1OC	32
COc1ncc(-c2ccc3nccc(-c4ccncc4)c3c2)cc1NS(=O)(=O)C1CC1	1
O=C(Nc1ccccc1)Nc1nc(-c2ccccn2)cs1	6.3
CN(Cc1cc2ccccc2s1)c1ncc2c(N)nc(N)nc2n1	25

// recorded IC50 for COc1ccc(Nc2nc(NC3CCC(O)CC3)ncc2Br)c(C(N)=O)c1 (stereo not drawn) : 0.4

// recorded IC50 for Cc1ccccc1NS(=O)(=O)c1ccc2[nH]cc(C(=O)NC3CCCCC3)c(=O)c2c1 : 32

// recorded IC50 for NS(=O)(=O)c1ccc(CNC(=O)c2ccc([N+](=O)[O-])s2)cc1 : 40

// recorded IC50 for O=C(CSc1nnc2ccc(-c3ccc(F)cc3)nn12)N1CCCCC1 : 6.3

// recorded IC50 for CS(=O)(=O)NC1CCC(Oc2cc3cnccc3cc2-c2ccsc2)CC1 (stereo not drawn) : 16

// recorded IC50 for Oc1cccnc1-c1n[nH]c(Cc2ccccc2)n1 : 16

====

Test system: L. donovani-infected THP-1 macrophages, intracellular amastigote imaging
Method notes: antileishmanial activity in infected THP-1 macrophages – imaging, THP-1 host macrophages, host toxicity (AID 1159564)
Measurement parameters: measured here: THP-1 host cell toxicity
pIC50: −log10 of the molar value.
Overview of recorded pIC50 for various molecules

Molecule	pIC50
CN(C)CCOc1ccc(N2CCN(S(=O)(=O)c3ccc(Cl)cc3)CC2)cc1	< 4.30
N#Cc1c(Oc2cccc(Cl)c2)cccc1[N+](=O)[O-]	< 4.30
O=C(Nc1ccc(S(=O)(=O)N2CCCC2)cc1)c1ccc([N+](=O)[O-])s1	< 4.30

// recorded pIC50 for COc1cnc2ccc(=O)n(CCN3CCC(NC/C=C/c4cc(F)ccc4F)CC3)c2c1 : 4.40

// recorded pIC50 for COc1ccc(-c2cnc(C)o2)cc1S(=O)(=O)Nc1ccc(C)cc1C : < 4.30

// recorded pIC50 for O=C1NCc2cccc(Nc3nc(NC4CCC(O)CC4)ncc3Br)c21 (stereo unspecified) : 7.00

====

System: L. donovani-infected THP-1 macrophages, intracellular amastigote imaging
Method notes: antileishmanial activity in infected THP-1 macrophages – imaging, THP-1 host macrophages, host toxicity (AID 1159564)
Measurement parameters: measured here: THP-1 host cell toxicity
Overview of recorded IC50 for various compounds
Numeric answer only, unit µM assumed.

Mol smiles	Endpoint unit	IC50
COc1ccccc1CNc1cc(C2CC2)nc(-c2nccn2C)n1	µM	16

// recorded IC50 for O=c1[nH]c(NCCCNCc2cc(Br)cc(Br)c2)nc2ccsc12 : 16

// recorded IC50 for CC(C)(C)Nc1nc(-c2ccccn2)nc2ccccc12 : 16

====

Tested on: L. donovani-infected THP-1 macrophages, intracellular amastigote imaging
Method notes: antileishmanial activity in infected THP-1 macrophages – imaging, THP-1 host macrophages, host toxicity (AID 1159564)
Measurement parameters: measured here: THP-1 host cell toxicity
Overview of recorded IC50 for various molecules
Numeric answer only, unit µM assumed.

Molecule	Endpoint unit	Observed value
N#Cc1cnc(Nc2cccc(CCN3CCOCC3)c2)nc1Nc1ccccc1C(N)=O	µM	0.79
Cc1nn(C2CCS(=O)(=O)C2)c(C)c1CN(C)C(=O)C=Cc1sc2ccccc2c1Cl (configuration not stated)	µM	20
c1ccc(CNc2cccc3ccncc23)cc1	µM	50
OC[C@@H](Nc1nccc(-c2c(-c3ccc(F)cc3)ncn2C2CCNCC2)n1)c1ccccc1	µM	32
CN(C)S(=O)(=O)c1cccc(C(=O)Nc2nc(-c3ccccn3)cs2)c1	µM	7.9

// recorded IC50 for Cc1cc(NC(=O)C2CCCCC2)n(-c2nc3c(c(=O)[nH]2)CCC3)n1 : 10

// recorded IC50 for Cc1cc(Nc2cc(C3CC3)[nH]n2)nc(N2CCC[C@H]2C(N)=O)n1 : 0.13

// recorded IC50 for CC1(Oc2cncc(Cl)c2)CCN(Cc2cc3ccccc3[nH]2)C1 (configuration not stated) : 32

// recorded IC50 for CCN(CC)c1nc(Nc2ccncc2)nc2ccccc12 : 25

// recorded IC50 for O=C(c1cccc(Nc2ncc(-c3ccc4c(c3)OCO4)cn2)c1)N1CCSC1 : 13

====

Tested on: L. donovani-infected THP-1 macrophages, intracellular amastigote imaging
Method notes: antileishmanial activity in infected THP-1 macrophages – imaging, THP-1 host macrophages, host toxicity (AID 1159564)
Measurement parameters: measured here: THP-1 host cell toxicity
Assay readout: IC50 (µM)
Numeric answer only, unit µM assumed.

Compound	Endpoint unit	IC50
NS(=O)(=O)c1ccc(Nc2nccc(-c3cnn4ncccc34)n2)cc1	µM	0.25
COc1cc(C(C)C)c(S(C)(=O)=O)cc1C(=O)N1CCN(c2ccccc2Cl)CC1	µM	16
O=S1N=C(NCCCN(Cc2ccc(F)cc2)c2ccccn2)C(NCc2ccncc2)=N1 (stereo not given)	µM	25

Shift focus to the following entry.
// recorded IC50 for CC(=O)Nc1ccc(CN2CCC(N3CC(c4ccccc4)(c4ccccc4)OCC3=O)CC2)cc1 : 40

====

Tested on: L. donovani-infected THP-1 macrophages, intracellular amastigote imaging
Method notes: antileishmanial activity in infected THP-1 macrophages – imaging, THP-1 host macrophages, host toxicity (AID 1159564)
Measurement parameters: measured here: THP-1 host cell toxicity
Assay readout: pIC50
Friendly reminder that pIC50 comes from taking -log10 of the concentration in mol/L.

Solved cases (4 shown):
Mol smiles	Measurement target	pIC50
COc1ccc(Cc2nc(-c3ncc4cccnc4c3O)n[nH]2)cc1OC	L. donovani-infected THP-1 macrophages, intracellular amastigote imaging	4.70
Cc1cc2nc(CN(C)Cc3ncccc3C)[nH]c2cc1C	L. donovani-infected THP-1 macrophages, intracellular amastigote imaging	5.10
O=C(Nc1cccc(Cl)c1)Nc1ccc([N+](=O)[O-])cc1Cl	L. donovani-infected THP-1 macrophages, intracellular amastigote imaging	4.60
O=c1ccc2ccc(F)c3c2n1C[C@H]3CN1CCC(NCc2cc3ccccc3o2)CC1	L. donovani-infected THP-1 macrophages, intracellular amastigote imaging	4.49

Shift focus to the following entry.
Record O=C1CN(C(=O)c2cccc(Nc3ncc(-c4ccc5c(c4)OCO5)cn3)c2)CCN1 ; system L. donovani-infected THP-1 macrophages, intracellular amastigote imaging; pIC50 = 4.20
